- System: OVCAR-4 ovarian
- experiment-description: NCI-60 one-dose screen, 48 h (100 = growth as untreated, 0 = no growth, -100 = all killed)
- details: 10 µM
This is part of a sample that, as a whole, favours compounds with a hit. Of some 83,000 tested, about 20% had one in any assay.
measurement-name: growth (%)

structure_smiles=CC/C(=C(\c1ccc(O)cc1)c1ccc(OCCN(C)C(=O)CCOCCNC(=O)c2ccc3c(c2)CN([C@@H]2CCC(=O)NC2=O)C3=O)cc1)c1ccccc1 unit=% experimental_result=96.1
structure_smiles=CC/C(=C(\c1ccc(O)cc1)c1ccc(OCCN(C)C(=O)COCCNC(=O)Cc2ccc3c(c2)CN([C@@H]2CCC(=O)NC2=O)C3=O)cc1)c1ccccc1 unit=% experimental_result=38.7
structure_smiles=CC/C(=C(/c1ccc(O)cc1)c1ccc(OCCN(C)C(=O)COCCOCCNC(=O)Cc2ccc3c(c2)CN([C@@H]2CCC(=O)NC2=O)C3=O)cc1)c1ccccc1 unit=% experimental_result=59.2
structure_smiles=CC/C(=C(/c1ccc(O)cc1)c1ccc(OCCN(C)C(=O)COCCOCCNC(=O)c2ccc3c(c2)CN([C@@H]2CCC(=O)NC2=O)C3=O)cc1)c1ccccc1 unit=% experimental_result=93
